growth inhibition listing for selected compounds.
test description: NCI Yeast Anticancer Drug Screen. Data for the rad50 strain (AID 155);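 further: 0% = growth of vehicle-only cultures of the same strain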
assay conditions: S. cerevisiae rad50 strain growth inhibition; at 5.0 µM (retest, dose inferred, filed as 0.5); stronger effect = higher value
Compounds without any hit were thinned out: in the full panel of roughly 79,000, 15% have a hit.
Value expressed in %; do not type the unit.

Consider the reported growth inhibition for these compounds:
compound: CCOC1(OCC)Cc2nc3ccccc3cc21
growth inhibition / %: 4
--
compound: OC1OCC(OCc2ccccc2)C(OCc2ccccc2)C1OCc1ccccc1 (stereo not drawn)
growth inhibition / %: -4
--
compound: OC(Cc1ccccc1)(Cc1ccccc1)c1ccccc1
growth inhibition / %: 20
--
compound: CCOC(=O)Nc1nc2ccc(Cn3cccc3)cc2[nH]1
growth inhibition / %: 25

IN: Please give measured growth inhibition of the following entry: "Cc1cccc2c(Nc3ccc(NS(C)(=O)=O)cc3)c3ccccc3nc12"
OUT: 55

IN: Please give measured growth inhibition of the following entry: "Cc1cc(N(CCOS(C)(=O)=O)CCOS(C)(=O)=O)ccc1C=Nc1cc(Br)c(O)c(Br)c1"
OUT: 4

IN: Please give measured growth inhibition of the following entry: "CCCCc1c2c(nc3c1CCc1cc4cc5c(nc4nc1-3)-c1nc3c(c(CCCC)c1CC5)CCCC3=O)C(=O)CCC2"
OUT: 71

IN: Please give measured growth inhibition of the following entry: "Oc1c(Cl)cc(Cl)cc1/C=C1\C=Nc2ccccc21"
OUT: 1

IN: Please give measured growth inhibition of the following entry: "Cc1c(CCCl)c(N=[N+]=[N-])n2c(nc3ccccc32)c1C#N"
OUT: 31

* * *

growth inhibition listing for selected compounds.
test description: NCI Yeast Anticancer Drug Screen. Data for the mlh1 rad18 strain (AID 175)
assay conditions: S. cerevisiae mlh1 rad18 strain growth inhibition; at 50.0 µM; stronger effect = higher value
Method: Growth inhibition of yeast strains with defined genetic alterations is measured as a screen for potential anti-cancer activity. Selected strains with alterations in DNA damage repair or cell cycle control were exposed to compounds and growth inhibition was measured relative to vehicle treated controls. The strain used in this assay is mlh1 rad18
This is part of a sample that, as a whole, favours compounds with a hit. Of some 79,000 tested, about 15% had one in any assay.
Value expressed in %; do not type the unit.

compound: O=P(OCCCl)(OCCCl)C(Nc1cccc2ccccc12)c1ccccc1 (stereo not given)
numeric result: 90.2

IN: Please give measured growth inhibition of the following entry: "C/C(=N/NC(=S)N(C)C)c1ccccc1O"
OUT: 16.7

IN: Please give measured growth inhibition of the following entry: "CN(C)c1ccc(-c2c(C#N)c(-c3ccccc3)n(NS(=O)(=O)c3ccccc3)c(=O)c2C#N)cc1"
OUT: 72.2

IN: Please give measured growth inhibition of the following entry: CCCCCCCCCCCCS(=O)(=O)CC(Br)C(=O)c1ccco1 (stereo not given)
OUT: 95.3

IN: Please give measured growth inhibition of the following entry: "N#CC1=C(C#N)Sc2nc3cc(Cl)ccc3nc2S1"
OUT: 94.8

* * *

test description: NCI Yeast Anticancer Drug Screen. Data for the mec2-1 strain (AID 157)
assay conditions: S. cerevisiae mec2-1 strain, at 5.0 µM (retest, dose inferred, filed as 0.5), stronger effect = higher value
The panel holds about 79,000 compounds, 15% with a hit somewhere; the sample as a whole holds those more often.
growth inhibition listing for selected compounds.
Value expressed in %; do not type the unit.

Consider the reported growth inhibition for these compounds:
compound: COc1cccc2c1C(=O)c1c(O)c3c(c(O)c1C2=O)C[C@@](O)(C(C)=O)C[C@@H]3OC1CC([N+]([O-])(Cc2ccccc2)Cc2ccccc2)C(O)C(C)O1 (stereo not given in full)
growth inhibition [%]: 30
--
compound: C=CCN1/C(=C\C=C\c2ccc3cc(C)ccc3[n+]2CC=C)C=Cc2cc(C)ccc21
growth inhibition [%]: 63
--
compound: O=[N+]([O-])c1ccccc1OS(=O)(=O)c1ccccc1
growth inhibition [%]: -12
--
compound: O=C1c2ccccc2C(=O)c2c(NCCNCCO)ccc(O)c21
growth inhibition [%]: 19

IN: Please give measured growth inhibition of the following entry: "NC(=Nc1ccccc1)SCc1ccc([N+](=O)[O-])cc1"
OUT: 51

IN: Please give measured growth inhibition of the following entry: "Cc1cc(N=Nc2ccccc2C)c(N)cc1N"
OUT: -11

* * *

test description: NCI Yeast Anticancer Drug Screen. Data for the sgs1 mgt1 strain (AID 161);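 further: 0% = growth of cultures given vehicle only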
assay conditions: S. cerevisiae sgs1 mgt1 strain, at 5.0 µM (retest, dose inferred, filed as 0.5)
Compounds without any hit were thinned out: in the full panel of roughly 79,000, 15% have a hit. Activity calls are given as the source filed them. Cut-off read from the data, not from the text of the source: active = growth inhibition above about 70%; inactive = the rest.
Tick one outcome: active, inactive

compound: Cc1cccc2c(C(=O)CBr)cc(-c3ccc(Cl)cc3)nc12
class: active

compound: CCOc1ccc(Nc2nc(C)c(C(=O)/C=C/c3ccc(Cl)cc3Cl)s2)cc1
class: inactive

compound: CC(=O)Nc1ccc(-c2nnc(SCC(=O)Nc3ccc([N+](=O)[O-])cc3)o2)cc1
class: inactive

Kindly consider the entry below.
IN: Test call for this compound, please: "COc1ccc(CC/C(=N/O)c2ccccc2)cc1"
OUT: inactive

* * *

test description: NCI Yeast Anticancer Drug Screen. Data for the cln2 rad14 strain (AID 165);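 further: 0% = growth equal to vehicle treated cultures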
assay conditions: S. cerevisiae cln2 rad14 strain, at 50.0 µM (retest, dose inferred, filed as 5.0)
About 79,000 compounds went through this panel and 15% of them were active in at least one assay; those are over-represented in the sample as a whole. Calls of active or inactive are those of the source. No stated cut-off is given here; in the data, active means growth inhibition above about 70%; inactive means the rest.
Tick one outcome: active, inactive

compound: CC(=O)Nc1ccc(-c2nnc(SCC(=O)Nc3ccc(Cl)cc3Cl)o2)cc1
class: inactive
//
compound: NC(N)=NS(=O)(=O)c1ccc(N=Cc2c3ccccc3nc3cc(Cl)ccc23)cc1
class: inactive
//
compound: CCCCCCCCC/C=C1\CCC(CN(C)C)C1=O (stereo not given)
class: active
//
compound: O=C(/C=C\C(=O)Nc1cccc(N(Cc2ccccc2)Cc2ccccc2)c1)Nc1cccc(N(Cc2ccccc2)Cc2ccccc2)c1
class: inactive

Kindly consider the entry below.
IN: Test call for this compound, please: "N#C/C(=C\NC(=S)Nc1cc(Cl)ccc1Cl)c1nc2ccccc2s1"
OUT: inactive

* * *

test description: NCI Yeast Anticancer Drug Screen. Data for the mlh1 rad18 strain (AID 175)
assay conditions: S. cerevisiae mlh1 rad18 strain growth inhibition; at 50.0 µM; stronger effect = higher value
Compounds without any hit were thinned out: in the full panel of roughly 79,000, 15% have a hit.
growth inhibition listing for selected compounds.
Value expressed in %; do not type the unit.

Consider the reported growth inhibition for these compounds:
compound: COc1ccc(/C=C2/C(=O)NC3SC=C(c4cccc([N+](=O)[O-])c4)N23)cc1 (stereo not drawn)
numeric result: 29.7
--
compound: CCCCNC(=S)N/N=C/c1cccc(C)n1
numeric result: -11.1

Consider the record given below.
IN: Please give measured growth inhibition of the following entry: "CCCCN(CCCC)C(=O)c1ccc(Cl)cc1Cl"
OUT: 98.3

* * *

test description: NCI Yeast Anticancer Drug Screen. Data for the cln2 rad14 strain (AID 165);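 further: 0% = growth equal to vehicle treated cultures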
assay conditions: S. cerevisiae cln2 rad14 strain, at 50.0 µM (retest, dose inferred, filed as 5.0), stronger effect = higher value
Compounds without any hit were thinned out: in the full panel of roughly 79,000, 15% have a hit.
property measured: growth inhibition (%)
Value expressed in %; do not type the unit.

molecule: O=C(c1cc2c(C(F)(F)F)onc2c2ccccc12)C(F)(F)F
growth inhibition (%): 28

molecule: O=C1C(C(O)(C(F)(F)Cl)C(F)(F)Cl)CCC1C(O)(C(F)(F)Cl)C(F)(F)Cl (centres undefined)
growth inhibition (%): 99

molecule: COC1/C=C\OC2(C)Oc3c(C)c(O)c4c(O)c(c5[nH]c(-c6ccccc6)nc5c4c3C2=O)NC(=O)/C(C)=C\C=C\C(C)C(O)C(C)C(O)C(C)C(OC(C)=O)C1C (centres undefined)
growth inhibition (%): 91

IN: Please give measured growth inhibition of the following entry: NC(=O)NOCC1NC(=O)NC1=O (centres undefined)
OUT: -2

IN: Please give measured growth inhibition of the following entry: COC1/C=C/OC2(C)Oc3c(C)c(O)c4c5c(cc(O)c4c3C2=O)N=C(O5)/C(C)=C\C=C\C(C)C(O)C(C)C(O)C(C)C(OC(C)=O)C1C (centres undefined)
OUT: 99

IN: Please give measured growth inhibition of the following entry: "Cc1nc(Nc2ccc(Cl)cc2)sc1C(=O)Nc1cccc2c(=O)[nH][nH]c(=O)c12"
OUT: 3

* * *

growth inhibition listing for selected molecules.
test description: NCI Yeast Anticancer Drug Screen. Data for the sgs1 mgt1 strain (AID 161);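 further: 0% = growth of cultures given vehicle only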
assay conditions: S. cerevisiae sgs1 mgt1 strain, at 50.0 µM (retest, dose inferred, filed as 5.0), stronger effect = higher value
About 79,000 compounds went through this panel and 15% of them were active in at least one assay; those are over-represented in the sample as a whole.
Value expressed in %; do not type the unit.

Consider the reported growth inhibition for these molecules:
molecule: COc1cnc2cc3c4c(cccc4c2c1)NC3=O
endpoint unit: %
growth inhibition: 92
--
molecule: O=c1cc(CSc2ccc(Cl)cc2)occ1O
endpoint unit: %
growth inhibition: 72
--
molecule: O=C(/C=C/c1cc(O)c(O)cc1O)OCCc1ccccc1
endpoint unit: %
growth inhibition: 64

IN: Please give measured growth inhibition of the following entry: "CCOC(=O)/C(=C\c1cccc([N+](=O)[O-])c1)C(C)=O"
OUT: 99

IN: Please give measured growth inhibition of the following entry: "Nc1ccc2ccc3cccc4ccc1c2c34"
OUT: 98

IN: Please give measured growth inhibition of the following entry: COc1ccc(C(c2c(O)c3ccccc3oc2=O)N2CCOCC2)cc1 (centres undefined)
OUT: -29

IN: Please give measured growth inhibition of the following entry: CC(=O)O/N=C1/CCC2C3CC=C4CC(OC(C)=O)CCC4(C)C3CCC12C (centres undefined)
OUT: 89

IN: Please give measured growth inhibition of the following entry: "CCOP(=O)(OCC)/C(C#N)=C/c1ccc(Oc2ccccc2)cc1"
OUT: 97

IN: Please give measured growth inhibition of the following entry: "S=C(NCc1ccccc1)[S][Sb]([S]C(=S)NCc1ccccc1)[c]1ccccc1"
OUT: 93

IN: Please give measured growth inhibition of the following entry: O=C1OC(c2ccccc2)(c2ccc(-c3ccc(O)cc3)cc2)c2ccccc21 (centres undefined)
OUT: 97

IN: Please give measured growth inhibition of the following entry: Cc1nn(C(=O)c2ccccc2O)c2c1C(c1ccc3ccccc3c1O)SC(N)=N2 (centres undefined)
OUT: 96

IN: Please give measured growth inhibition of the following entry: "Cc1ccc(N2C(c3ccccc3)=CC(=C3C=CC(=O)C=C3)C=C2c2ccccc2)cc1"
OUT: 83

IN: Please give measured growth inhibition of the following entry: "Oc1cc(Br)ccc1/C=N/Nc1ccccn1"
OUT: 6

IN: Please give measured growth inhibition of the following entry: CN(/N=C/C(O)C(O)C(O)CO)c1ccccc1 (centres undefined)
OUT: 99
